Hey, just so you know, these numbers are from patent US5206237A.

pIC50 data for CCK receptor (brain) (Cavia porcellus, UniProt H0VZC5) follow.
Lab note — pIC50 values are minus log10 of concentrations in M.

What value of pIC50 has been reported for the following compound? Cc1cccc(NC(=O)NC2N=C(c3ccccc3)c3ccccc3N=C2NCCCN2CCCC2=O)c1 (stereo not shown) [Example 14]
7.82

What value of pIC50 has been reported for the following compound? Cc1cccc(NC(=O)NC2N=C(c3ccccc3)c3ccccc3N=C2NCC(=O)N2CCCC2)c1 (stereo not shown) [Example 11]
8.23

What value of pIC50 has been reported for the following compound? CCN(CC)CCCNC1=Nc2ccccc2C(c2ccccc2)=NC1NC(=O)Nc1cccc(C)c1 (stereo not shown) [Example 13]
7.11

What value of pIC50 has been reported for the following compound? Cc1cccc(NC(=O)NC2N=C(c3ccccc3)c3ccccc3N=C2NCC(=O)N2CCN(C)CC2)c1 (stereo not shown) [Example 12]
6.91
